target: furin, P09958; assay: furin cleavage Z-score vs untreated control; higher = more cleavage, active = 3.5 or more, inactive = 1 or less, 8 variable residues between constant flanks; conditions: 15 min;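 also: purified furin at 1:10 enzyme:substrate in 50 mM HEPES pH 7.5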
Sequence (P09958 whole entry): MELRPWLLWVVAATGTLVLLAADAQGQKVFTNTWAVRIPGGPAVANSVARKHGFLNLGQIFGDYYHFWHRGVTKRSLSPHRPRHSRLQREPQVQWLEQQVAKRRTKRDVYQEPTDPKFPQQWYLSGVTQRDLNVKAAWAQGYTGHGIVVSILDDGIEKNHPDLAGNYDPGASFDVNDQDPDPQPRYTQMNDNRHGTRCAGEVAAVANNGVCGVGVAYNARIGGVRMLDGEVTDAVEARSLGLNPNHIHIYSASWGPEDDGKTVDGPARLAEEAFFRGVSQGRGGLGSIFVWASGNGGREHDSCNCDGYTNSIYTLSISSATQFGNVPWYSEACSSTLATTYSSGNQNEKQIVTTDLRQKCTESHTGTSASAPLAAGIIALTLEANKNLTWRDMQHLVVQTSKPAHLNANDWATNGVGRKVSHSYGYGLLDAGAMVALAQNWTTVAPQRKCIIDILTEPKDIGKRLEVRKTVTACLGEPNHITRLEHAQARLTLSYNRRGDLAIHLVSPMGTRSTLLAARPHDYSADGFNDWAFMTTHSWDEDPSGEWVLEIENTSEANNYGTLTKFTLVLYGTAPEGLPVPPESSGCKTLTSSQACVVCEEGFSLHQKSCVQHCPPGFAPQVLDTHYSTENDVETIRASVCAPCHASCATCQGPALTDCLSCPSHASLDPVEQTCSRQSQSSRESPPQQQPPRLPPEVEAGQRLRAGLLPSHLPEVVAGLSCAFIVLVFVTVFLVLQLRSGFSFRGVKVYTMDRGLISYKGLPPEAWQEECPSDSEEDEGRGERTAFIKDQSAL
This is one part of the list. The hit rate among all sequences tested is not known here.
Can you answer with just one of these options? class 1 (active), class 0 (inactive)

-- ask Please indicate how the test categorized CAKDSRFFRYAGNASASA [FS-808] .
-- reply class 0

-- ask Again, but for CADIWDWICEAGNASASA [HC1150]
-- reply class 0

-- ask Again, but for CAVYRRSLGKAGNASASA [FS-2202]
-- reply class 0

-- ask Again, but for CADPNIRTGVAGNASASA [HC798]
-- reply class 0

-- ask Again, but for CAMREVPCHRAGNASASA [HC2426]
-- reply class 0

-- ask Again, but for CAAKAKRRRSAGNASASA [FS-744]
-- reply class 1

Source of measurements: the supplement of paper PMC3545927
